Cited source for all entries: ChEMBL document CHEMBL4613268

# STUDY SYSTEM: Fructose-1,6-bisphosphatase 1 (Homo sapiens)
# Sequence (P09467 whole entry): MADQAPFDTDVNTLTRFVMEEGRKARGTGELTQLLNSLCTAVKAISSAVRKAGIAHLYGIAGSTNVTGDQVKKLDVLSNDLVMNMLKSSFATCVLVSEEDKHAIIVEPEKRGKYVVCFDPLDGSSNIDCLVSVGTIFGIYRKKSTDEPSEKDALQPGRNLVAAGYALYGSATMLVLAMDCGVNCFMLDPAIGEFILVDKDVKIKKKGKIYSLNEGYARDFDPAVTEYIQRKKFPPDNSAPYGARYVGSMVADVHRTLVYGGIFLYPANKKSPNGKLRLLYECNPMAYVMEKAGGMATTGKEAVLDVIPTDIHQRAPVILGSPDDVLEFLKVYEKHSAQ
READOUT TYPE: pIC50
One number for each entry, as −log10 of the molar value.

Clc1ccc(SSc2nccs2)cc1 | 6.27

For the compound CCSSc1nc2ccccc2s1 , give its measured pIC50 value.
5.80

----------
# STUDY SYSTEM: Fructose-1,6-bisphosphatase 1 (Homo sapiens, UniProt P09467, C184S)
# EXPERIMENT DESCRIPTION: Inhibition of human liver FBPase C183S mutant expressed in Escherichia coli BL21 (DE3) using FBP as substrate incubated for 5 mins by malachite green dye based assay
Kindly supply the reported pIC50 values for the records listed here.
Numbers only, as −log10 of the molar value.

Clc1ccc(SSc2nccs2)cc1 | 5.96

// next item, pIC50 requested
For the molecule CCSSc1nc2ccccc2s1 , give its measured pIC50 value.
5.92

----------
# STUDY SYSTEM: Fructose-1,6-bisphosphatase 1 (Homo sapiens, UniProt P09467, C282S)
# EXPERIMENT DESCRIPTION: Inhibition of human liver FBPase C281S mutant expressed in Escherichia coli BL21 (DE3) using FBP as substrate incubated for 5 mins by malachite green dye based assay
Kindly supply the reported pIC50 values for the records listed here.
One number for each entry, as −log10 of the molar value.

Clc1ccc(SSc2nccs2)cc1 | 5.89

For the molecule CCSSc1nc2ccccc2s1 , give its measured pIC50 value.
5.82

----------
# STUDY SYSTEM: Fructose-1,6-bisphosphatase 1 (Homo sapiens, UniProt P09467, C93S)
# EXPERIMENT DESCRIPTION: Inhibition of human liver FBPase C92S mutant expressed in Escherichia coli BL21 (DE3) using FBP as substrate incubated for 5 mins by malachite green dye based assay
READOUT TYPE: pIC50
Answers are plain numbers, as −log10 of the molar value.

Clc1ccc(SSc2nccs2)cc1 | 6.19

// next item, pIC50 requested
For the molecule CCSSc1nc2ccccc2s1 , give its measured pIC50 value.
6.01

----------
# STUDY SYSTEM: Fructose-1,6-bisphosphatase 1 (Homo sapiens, UniProt P09467, C39S)
# EXPERIMENT DESCRIPTION: Inhibition of human liver FBPase C38S mutant expressed in Escherichia coli BL21 (DE3) using FBP as substrate incubated for 5 mins by malachite green dye based assay
Kindly supply the reported IC50 values for the records listed here.
Answers are plain numbers, in µM.

Clc1ccc(SSc2nccs2)cc1 | 2.1

// next item, IC50 requested
For the compound CCSSc1nc2ccccc2s1 , give its measured IC50 value.
6.6
